# assayProcedure: Plasma pharmacokinetics after oral intake of midodrine (plain tablet / solution)
# statedConditions: human, in vivo
quantityName: Tmax (h)
Give bare numbers, in h.

IN: Using known records, supply Tmax for COc1ccc(OC)c(C(O)CN)c1 (stereo not shown)
OUT: 1
